- Tested on: Enterococcus sp.
- Measurement notes: in vitro antibacterial evaluation, MIC by broth dilution
- Format: cell-based
- Assay setup: broth dilution, inoculum 5×10^5 CFU/mL, 18 hours at 35° C.; strain GC 4557
Readout type: MIC Enterococcus faecium (GC 4557)

Exam item: # returns recorded MIC Enterococcus faecium (GC 4557) (system: Enterococcus sp.) for N=C1NCC(C(O)C2NC(=O)C(Cc3ccc(OC4OC(CO)C(OC5OC6COC(Cc7ccccc7)OC6C(O)C5O)C(O)C4O)cc3)NC(=O)C(CC3CCCCC3)NC(=O)CNC(=O)C(CO)NC(=O)C(C(O)C3CNC(=N)N3C3OC(CO)C(O)C(O)C3O)NC2=O)N1 (stereo not drawn) [Example 200]
Marked response: 2 µg/mL

Exam item: Same thing, different molecule: CC(c1ccccc1)C1NC(=O)CNC(=O)C(CO)NC(=O)C(C(O)C2CNC(=N)N2C2OC(CO)C(O)C(O)C2O)NC(=O)C(C(O)C2CNC(=N)N2)NC(=O)C(Cc2ccc(OC3OC(CO)C(OC4OC(CO)C(OCc5ccc(OCc6ccccc6)cc5)C(O)C4O)C(O)C3O)cc2)NC1=O (stereo not drawn) [Example 231a]
Marked response: 2 µg/mL

Exam item: Param item: CC(c1ccccc1)C1NC(=O)CNC(=O)C(CO)NC(=O)C(C(O)C2CN(c3nc4ccccc4o3)C(=N)N2C2OC(CO)C(O)C(O)C2O)NC(=O)C(C(O)C2CNC(=Nc3nc4ccccc4o3)N2)NC(=O)C(Cc2ccc(OC3OC(CO)C(OC4OC5COC6(OC5C(O)C4O)C4CC5CC(C4)CC6C5)C(O)C3O)cc2)NC1=O (stereo not drawn) [Example 227]
Marked response: 8 µg/mL

Exam item: Next record, please: Cc1ccc(Oc2cccc(C3OCC4OC(OC5C(CO)OC(Oc6ccc(CC7NC(=O)C(C(C)c8ccccc8)NC(=O)CNC(=O)C(CO)NC(=O)C(C(O)C8CNC(=N)N8C8OC(CO)C(O)C(O)C8O)NC(=O)C(C(O)C8CNC(=N)N8)NC7=O)cc6I)C(O)C5O)C(O)C(O)C4O3)c2)cc1 (stereo not drawn) [Example 197]
Marked response: 8 µg/mL

Exam item: Now this one: N=C1NCC(C(O)C2NC(=O)C(Cc3ccc(OC4OC(CO)C(OC5OC6COC(CCc7ccccc7)OC6C(O)C5O)C(O)C4O)cc3)NC(=O)C(CC3CCCCC3)NC(=O)CNC(=O)C(CO)NC(=O)C(C(O)C3CNC(=N)N3C3OC(CO)C(O)C(O)C3O)NC2=O)N1 (stereo not drawn) [Example 198]
Marked response: 1 µg/mL

Exam item: Item: CC(c1ccccc1)C1NC(=O)CNC(=O)C(CO)NC(=O)C(C(O)C2CNC(=N)N2C2OC(CO)C(O)C(O)C2O)NC(=O)C(C(O)C2CNC(=N)N2)NC(=O)C(Cc2ccc(OC3OC(CO)C(OC4OC(CO)C(O)C(O)C4OCc4ccc(OCc5ccccc5)cc4)C(O)C3O)cc2)NC1=O (stereo not drawn) [Example 231b]
Marked response: 4 to 16 µg/mL

Exam item: Repeat with N=C1NCC(C(O)C2NC(=O)C(CC3CCC(OC4OC(CO)C(OC5OC6COC7(OC6C(O)C5O)C5CC6CC(C5)CC7C6)C(O)C4O)CC3)NC(=O)C(CC3CCCCC3)NC(=O)CNC(=O)C(CO)NC(=O)C(C(O)C3CNC(=N)N3C3OC(CO)C(O)C(O)C3O)NC2=O)N1 (single isomer, unassigned) [Example 222]
Marked response: 64 µg/mL

Exam item: CC(=O)n1cc(C2OCC3OC(OC4C(CO)OC(Oc5ccc(CC6NC(=O)C(C(C)c7ccccc7)NC(=O)CNC(=O)C(CO)NC(=O)C(C(O)C7CNC(=N)N7C7OC(CO)C(O)C(O)C7O)NC(=O)C(C(O)C7CNC(=N)N7)NC6=O)cc5)C(O)C4O)C(O)C(O)C3O2)c2ccccc21 (stereo not drawn) [Example 161] ?
Marked response: 8 µg/mL

Exam item: Note, next up: COc1cc(C2OCC3OC(OC4C(CO)OC(Oc5ccc(CC6NC(=O)C(C(C)c7ccccc7)NC(=O)CNC(=O)C(CO)NC(=O)C(C(O)C7CNC(=N)N7C7OC(CO)C(O)C(O)C7O)NC(=O)C(C(O)C7CNC(=N)N7)NC6=O)cc5)C(O)C4O)C(O)C(O)C3O2)cc([N+](=O)[O-])c1O (stereo not drawn) [Example 169]
Marked response: 32 µg/mL

* * *

- System: Enterococcus sp.
- Measurement notes: in vitro antibacterial evaluation, MIC by broth dilution
- Format: cell-based
- Assay setup: Enterococcus faecalis (GC 6189); broth dilution, 18 hours at 35° C.
- Excerpt: Methods for in vitro Antibacterial Evaluation (Table 1) […]
Readout type: MIC Enterococcus faecalis (GC 6189) (µg/mL)
Unit µg/mL implied. Number only.

Exam item: // MIC Enterococcus faecalis (GC 6189) lookup, key: CC=C(C)C(=O)OC1C(CO)OC(OC2C(CO)OC(Oc3ccc(CC4NC(=O)C(C(C)c5ccccc5)NC(=O)CNC(=O)C(CO)NC(=O)C(C(O)C5CNC(=N)N5C5OC(CO)C(O)C(O)C5O)NC(=O)C(C(O)C5CNC(=N)N5)NC4=O)cc3)C(O)C2O)C(O)C1O (stereo not drawn) [Example 278b]
Marked response: 32

Exam item: Consider next the molecule CC(c1ccccc1)C1NC(=O)CNC(=O)C(CO)NC(=O)C(C(O)C2CNC(=N)N2C2OC(CO)C(O)C(O)C2O)NC(=O)C(C(O)C2CNC(=N)N2)NC(=O)C(Cc2ccc(OC3OC(CO)C(OC4OC5COC(c6cccs6)OC5C(O)C4O)C(O)C3O)cc2)NC1=O (stereo not drawn) in the same way.
Marked response: 8

Exam item: Next molecule up: CC(c1ccccc1)C1NC(=O)CNC(=O)C(CO)NC(=O)C(C(O)C2CNC(=N)N2C2OC(CO)C(O)C(O)C2O)NC(=O)C(C(O)C2CNC(=N)N2)NC(=O)C(Cc2ccc(OC3OC(CO)C(OC4OC5COC(c6cccc(O)c6)OC5C(O)C4O)C(O)C3O)cc2)NC1=O (stereo not drawn)
Marked response: 64

* * *

Hi there, I'd appreciate the recorded MIC Enterococcus faecalis (GC 4552) for every entry that follows.
- System: Enterococcus sp.
- Measurement notes: in vitro antibacterial evaluation, MIC by broth dilution
- Assay type: cell-based
- Assay setup: broth dilution, inoculum 5×10^5 CFU/mL, 18 hours at 35° C.; strain GC 4552

Exam item: Which MIC Enterococcus faecalis (GC 4552) is reported for this compound? CC(C)=CCCC(C)=CCCC(C)=CCOc1cccc(C2OCC3OC(OC4C(CO)OC(Oc5ccc(CC6NC(=O)C(C(C)c7ccccc7)NC(=O)CNC(=O)C(CO)NC(=O)C(C(O)C7CNC(=N)N7C7OC(CO)C(O)C(O)C7O)NC(=O)C(C(O)C7CNC(=N)N7)NC6=O)cc5)C(O)C4O)C(O)C(O)C3O2)c1 (stereo not drawn) [Example 185]
Marked response: >64 µg/mL

Exam item: And the next one, COc1ccc2cc(COC3C(OC4C(CO)OC(Oc5ccc(CC6NC(=O)C(C(C)c7ccccc7)NC(=O)CNC(=O)C(CO)NC(=O)C(C(O)C7CNC(=N)N7C7OC(CO)C(O)C(O)C7O)NC(=O)C(C(O)C7CNC(=N)N7)NC6=O)cc5)C(O)C4O)OC(CO)C(O)C3O)ccc2c1 (stereo not drawn) [Example 230c] ?
Marked response: >128 µg/mL

Exam item: Try this compound too: N=C1NCC(C(O)C2NC(=O)C(CC3CCC(OC4OC(CO)C(OC5OC6COC7(OC6C(O)C5O)C5CC6CC(C5)CC7C6)C(O)C4O)CC3)NC(=O)C(CC3CCCCC3)NC(=O)CNC(=O)C(CO)NC(=O)C(C(O)C3CNC(=N)N3C3OC(CO)C(O)C(O)C3O)NC2=O)N1 (single isomer, unassigned) [Example 223]
Marked response: >64 µg/mL

* * *

Please go through the items and note down their MIC Staphylococcus aureus (GC 3051).
- Tested on: Staphylococcus sp.
- Measurement notes: in vitro antibacterial evaluation, MIC by broth dilution
- Assay type: cell-based
- Assay setup: strain GC 3051; broth dilution, 18 hours at 35° C.
- Text: Methods for in vitro Antibacterial Evaluation (Table 1) […]

Exam item: Look at this compound and give its reported MIC Staphylococcus aureus (GC 3051). CC(c1ccccc1)C1NC(=O)CNC(=O)C(CO)NC(=O)C(C(O)C2CNC(=N)N2C2OC(CO)C(O)C(O)C2O)NC(=O)C(C(O)C2CNC(=N)N2)NC(=O)C(Cc2ccc(OC3OC(CO)C(OC4OC5COC(c6ccccc6)OC5C(O)C4O)C(O)C3O)c(I)c2)NC1=O (stereo not shown)
Marked response: >64 µg/mL

Exam item: Same thing, different compound: CC(c1ccccc1)C1NC(=O)CNC(=O)C(CO)NC(=O)C(C(O)C2CN(c3ncccn3)C(=N)N2C2OC(CO)C(O)C(O)C2O)NC(=O)C(C(O)C2CNC(=Nc3ncccn3)N2)NC(=O)C(Cc2ccc(OC3OC(CO)C(OC4OC(CO)C(O)C(O)C4O)C(O)C3O)cc2)NC1=O (stereo not shown)
Marked response: >128 µg/mL

Exam item: Let us now turn to CCC(=O)Nc1cc(CC2NC(=O)C(C(C)c3ccccc3)NC(=O)CNC(=O)C(CO)NC(=O)C(C(O)C3CNC(=N)N3C3OC(CO)C(O)C(O)C3O)NC(=O)C(C(O)C3CNC(=N)N3)NC2=O)ccc1O (stereo not shown)
Marked response: >128 µg/mL

Exam item: Cool, now CC(C)=CCCC(C)=CCCC(C)=CCOc1cccc(C2OCC3OC(OC4C(CO)OC(Oc5ccc(CC6NC(=O)C(C(C)c7ccccc7)NC(=O)CNC(=O)C(CO)NC(=O)C(C(O)C7CNC(=N)N7C7OC(CO)C(O)C(O)C7O)NC(=O)C(C(O)C7CNC(=N)N7)NC6=O)cc5)C(O)C4O)C(O)C(O)C3O2)c1 (stereo not shown)
Marked response: >64 µg/mL

Recorded values, source patent US6914045B2.
